Where do the numbers come from? From PubChem BioAssay (NCI).

- Test system: MDA-MB-435
- EXPERIMENT DESCRIPTION: NCI tumour cell line growth inhibition, 48 h
PROPERTY LABEL: TGI (µM)
State the answer as a number, implicitly in µM.

Some solved cases for reference:
MOLECULE	TGI, µM
Cc1cn2c(/C=N/N=C(N)N)c(-c3cccnc3)nc2s1	7.15
O=C(CCC(C(=O)c1ccccc1)c1ccccc1)c1ccccc1 (stereo unspecified)	6.03

Req: With MDA-MB-435 as the test system, provide measured TGI for this molecule: CC1(C)CCC(C)(C)c2c1ccc(O)c2Cc1c(O)ccc2c1C(C)(C)CCC2(C)C
Resp: 3.48

###

- System: UACC-257 melanoma
- EXPERIMENT DESCRIPTION: NCI tumour cell line growth inhibition, 48 h
PROPERTY LABEL: TGI (µM)
State the answer as a number, implicitly in µM.

Some solved cases for reference:
COMPOUND	UNIT STRING	OBSERVED
C[n+]1ccc(-c2c3nc(c(-c4cc[n+](C)cc4)c4ccc([n-]4)c(-c4cc[n+](C)cc4)c4nc(c(-c5cc[n+](C)cc5)c5ccc2[n-]5)C=C4)C=C3)cc1.[I-].[Zn+2]	µM	30.1
CCC[CH2][Sn]1([CH2]CCC)[O]C(=O)c2ccc(C)cc2[O]1	µM	1.49
Cl/C(=C\C=Nc1ccc(I)cc1)c1ccc2ccccc2c1	µM	33.8
CC[C@@]1(O)C(=O)OCc2c1cc1n(c2=O)Cc2c-1nc1cc3c(cc1c2C)OCO3	µM	0.278
COc1ccc2nc3ccccc3c(NCCCN(C)CCCl)c2c1	µM	2.24

Req: Respond only with TGI recorded for Cc1ccc2[nH]c3c(c2c1)C1CCC(C(C)(C)C)CC1C1C(=O)N(c2ccc4c(c2)OCO4)C(=O)C31 (configuration not stated)
Resp: 23.7

Req: Respond only with TGI recorded for Cc1cn2c(/C=N/N=C(N)N)c(-c3cccnc3)nc2s1
Resp: 35.4

Req: Respond only with TGI recorded for CN1CC[C@]2(c3cccc(O)c3)CC(=O)/C(=C/c3ccc(Cl)c(Cl)c3)[C@@H]1C2
Resp: 2.93

Req: Respond only with TGI recorded for COC(=O)/C=C\C(C#N)(C#N)N=Cc1ccc(Br)s1
Resp: 28.6
